Test: Antimalarial blood schizonticidal test in mice
Type: in vivo, Plasmodium berghei (infected ICR/HA Swiss mice)
Conditions: mouse, in vivo, sc, single dose, infected mice; highest dose with no deaths for any reason; read-out: Highest Non-Lethal Dose
observed_property: MTD
# do not omit the unit; it follows the number

The examples below pair each entry with its known result.
[[record]]
compound = "Nc1nc(N)c2c(ccc3c2ccn3Cc2ccc3ccccc3c2)n1 [Example 48]"
observed_property = "MTD"
value_observed = "1160 mg/kg"

[[record]]
compound = "Cc1cc(C)c(Cn2ccc3c4c(N)nc(N)nc4ccc32)c(C)c1 [Example 27]"
observed_property = "MTD"
value_observed = "80 mg/kg"

[[record]]
compound = "Nc1nc(N)c2c(ccc3c2ccn3Cc2ccccc2C(F)(F)F)n1 [Example 11]"
observed_property = "MTD"
value_observed = "40 mg/kg"


Using the record for Nc1nc(N)c2c(ccc3c2ccn3Cc2ccc3ccccc3n2)n1 [Example 50] , report its MTD.
160 mg/kg

Proceed to Nc1nc(N)c2c(ccc3c2ccn3Cc2ccc(Cl)c(Cl)c2)n1 [Example 10]
40 mg/kg

---

Tested on: S. paratyphi 11737
Overview of reported MIC across a group of compounds:

// below: answered compounds
[[record]]
smi = "Nc1nc(N)c2c(ccc3c2ccn3-c2cnccn2)n1"
observed_property = "MIC"
value_observed = "3.9 µg/mL"

[[record]]
smi = "Cc1cc2c3c(N)nc(N)nc3ccc2n1C"
observed_property = "MIC"
value_observed = "1.95 µg/mL"

[[record]]
smi = "CCCCCCCn1ccc2c3c(N)nc(N)nc3ccc21"
observed_property = "MIC"
value_observed = "62.5 µg/mL"

[[record]]
smi = "Cn1c2c(c3c4c(N)nc(N)nc4ccc31)CCCC2"
observed_property = "MIC"
value_observed = "250 µg/mL"

[[record]]
smi = "CC(=O)c1ccc(Cn2ccc3c4c(N)nc(N)nc4ccc32)cc1"
observed_property = "MIC"
value_observed = "0.976 µg/mL"


Could you tell me which MIC is on file for Nc1nc(N)c2c(ccc3c2ccn3-c2ccc([N+](=O)[O-])cc2)n1 ?
62.5 µg/mL

Another compound to look at: Cc1cc(-n2ccc3c4c(N)nc(N)nc4ccc32)c2ccccc2n1
1.95 µg/mL

---

Each entry below carries its recorded MTD.
Assay: Antimalarial blood schizonticidal test in mice
Assay type: in vivo, Plasmodium berghei (infected ICR/HA Swiss mice)
Conditions: mouse, in vivo, sc, single dose; this is the highest dose tested; read-out: Highest Non-Lethal Dose
Only the number, expressed in mg/kg, is required.

Record excerpt, results attached:
[[record]]
smi = "Nc1nc(N)c2c(ccc3c2ccn3CCCc2ccccc2)n1"
observed_property = "MTD"
value_observed = 640

[[record]]
smi = "CCCCCCCn1ccc2c3c(N)nc(N)nc3ccc21"
observed_property = "MTD"
value_observed = 640


Give its MTD value. Item: Cc1ccc(C)c(Cn2ccc3c4c(N)nc(N)nc4ccc32)c1
640

---

Read-out record for S. paratyphi 11737: MIC
Kindly answer with a numeric value in µg/mL, unit omitted.

[[record]]
compound = "COc1ccc(Cn2ccc3c4c(N)nc(N)nc4ccc32)cc1 [Example 34]"
observed_property = "MIC"
measure_unit = "µg/mL"
value_observed = 0.976

[[record]]
compound = "CS(=O)(=O)c1ccc(Cn2ccc3c4c(N)nc(N)nc4ccc32)cc1 [Example 63]"
observed_property = "MIC"
measure_unit = "µg/mL"
value_observed = 0.976

[[record]]
compound = "Nc1nc(N)c2c(ccc3c2ccn3Cc2ccccc2)n1 [Example 2]"
observed_property = "MIC"
measure_unit = "µg/mL"
value_observed = 1.95

[[record]]
compound = "Nc1nc(N)c2c(ccc3c2ccn3Cc2ccc3ccccc3n2)n1 [Example 50]"
observed_property = "MIC"
measure_unit = "µg/mL"
value_observed = 7.81


For the compound Cc1ccc(Cn2ccc3c4c(N)nc(N)nc4ccc32)cc1C [Example 25] , what MIC is on record?
31.3

Queued: Cc1cc2c3c(N)nc(N)nc3ccc2n1Cc1ccccc1 [Example 100]
3.9

Queued: Nc1nc(N)c2c(ccc3c2ccn3Cc2ccc(Cl)cc2)n1 [Example 8]
0.976

---

Reported MIC for target or system S. paratyphi 11737, by entry.
Respond numerically; units are µg/mL and should not be typed.

Solved entries (count: 6):
[[record]]
smi = "COc1cccc(Cn2ccc3c4c(N)nc(N)nc4ccc32)c1OC"
observed_property = "MIC"
measure_unit = "µg/mL"
value_observed = 15.6

[[record]]
smi = "Nc1nc(N)c2c(ccc3[nH]c(-c4ccccc4)cc32)n1"
observed_property = "MIC"
measure_unit = "µg/mL"
value_observed = 125

[[record]]
smi = "Nc1nc(N)c2c(ccc3c2ccn3-c2ccnc3cc(C(F)(F)F)ccc23)n1"
observed_property = "MIC"
measure_unit = "µg/mL"
value_observed = 31.3

[[record]]
smi = "Nc1nc(N)c2c(ccc3c2ccn3Cc2ccc3c(c2)OCO3)n1"
observed_property = "MIC"
measure_unit = "µg/mL"
value_observed = 15.6

[[record]]
smi = "CCOc1ccc(Cn2ccc3c4c(N)nc(N)nc4ccc32)cc1"
observed_property = "MIC"
measure_unit = "µg/mL"
value_observed = 7.81

[[record]]
smi = "Cc1noc(C)c1Cn1ccc2c3c(N)nc(N)nc3ccc21"
observed_property = "MIC"
measure_unit = "µg/mL"
value_observed = 1.95


In the following, a different compound is considered.
Fill in: MIC of CC(C)=CCn1ccc2c3c(N)nc(N)nc3ccc21 is ___
7.81

---

System: Proteus mirabilis 190
Assay: In vivo antibacterial synergism (mouse), Proteus mirabilis 190
Design: species or system Proteus mirabilis (infected mice, CD-1)
Details: Proteus mirabilis, 190, po, 336 h, mice, p.o., treated 0 hours after infecting; read-out: PD50 (agent alone)
Could you mark each record true if its ED50 falls strictly under 20 mg/kg, and false if it equals or exceeds it?

[[record]]
smi = "Cc1cc2c3c(N)nc(N)nc3ccc2n1Cc1ccccc1"
discrete_label = "false"

[[record]]
smi = "Nc1nc(N)c2c(ccc3c2ccn3Cc2ccc(F)cc2)n1"
discrete_label = "true"

[[record]]
smi = "Nc1nc(N)c2c(ccc3c2ccn3-c2nccs2)n1"
discrete_label = "false"

[[record]]
smi = "N#Cc1ccc(Cn2ccc3c4c(N)nc(N)nc4ccc32)cc1"
discrete_label = "true"


Determine if N#Cc1ccc(-n2ccc3c4c(N)nc(N)nc4ccc32)cc1 shows ED50 strictly lower than 20 mg/kg.
false

Similarly, N#Cc1cccc(Cn2ccc3c4c(N)nc(N)nc4ccc32)c1 ?
true

---

The entries below come with measured MIC values attached.
Test system: S. aureus 53-180
# number only, unit µg/mL dropped from output

Guide cases for MIC, answers given:
[[record]]
compound = "Cc1cc2c3c(N)nc(N)nc3ccc2n1Cc1ccccc1 [Example 100]"
value_observed = 0.976

[[record]]
compound = "Cc1ccc(Cn2ccc3c4c(N)nc(N)nc4ccc32)cc1C [Example 25]"
value_observed = 0.976

[[record]]
compound = "Nc1nc(N)c2c(ccc3c2ccn3Cc2cccc([N+](=O)[O-])c2)n1 [Example 18]"
value_observed = 0.061


Reported MIC for Nc1nc(N)c2c(ccc3c2ccn3-c2ccc([N+](=O)[O-])cn2)n1 [Example 82] : what is it?
3.9

What about this compound? CCOC(=O)c1ccc(-n2ccc3c4c(N)nc(N)nc4ccc32)cc1 [Example 75]
7.81

Next compound: CC(C)(C)c1ccc(Cn2ccc3c4c(N)nc(N)nc4ccc32)cc1 [Example 30]
3.9

Then Nc1nc(N)c2c(ccc3c2ccn3-c2ccccc2C(F)(F)F)n1 [Example 93] ?
0.031

---

Tested on: Plasmodium berghei KBG 173
Experiment: Antimalarial blood schizonticidal test in mice
Format: in vivo, Plasmodium berghei (infected ICR/HA Swiss mice)
Set-up: unit: days
Settings: s.c., dose 2.5 mg. per kg.
observed_property: ΔMST (increase in mean survival time)

Look at this compound and give its reported ΔMST (increase in mean survival time). Nc1nc(N)c2c(ccc3c2ccn3Cc2ccc3c(c2)OCO3)n1 [Example 38]
12.2

Now consider N#Cc1ccc(-n2ccc3c4c(N)nc(N)nc4ccc32)cc1 [Example 69] and answer again.
11

Please give the result for Nc1nc(N)c2c(ccc3c2ccn3Cc2cccc(C(F)(F)F)c2)n1 [Example 12] too.
7.5

Further, for Nc1nc(N)c2c(ccc3c2ccn3Cc2ccc(F)cc2)n1 [Example 5] ?
7.1

And what about the compound Nc1nc(N)c2c(ccc3c2ccn3Cc2cccc([N+](=O)[O-])c2)n1 [Example 18] ?
7.4

Could you do the same for Nc1nc(N)c2c(ccc3c2ccn3Cc2ccc(Cl)c(Cl)c2)n1 [Example 10] , please?
10.2

Now try CCOC(=O)c1ccc(Cn2ccc3c4c(N)nc(N)nc4ccc32)cc1 [Example 17] .
6.0

Can you handle COc1ccc(Cn2ccc3c4c(N)nc(N)nc4ccc32)cc1OC [Example 37] next?
6.9

And then Cc1cc(C)c(Cn2ccc3c4c(N)nc(N)nc4ccc32)c(C)c1 [Example 27] , what is it?
7.3
